Protocol Details: Oral bioavailability in mouse
Assay type: ADME, organism-based
Experimental Conditions: in vivo
Parameter: bioavailability (%)

>>> recorded_number("CC[C@@H]([C@H](C)O)N1C(=O)[C@@](C)(CC(=O)O)C[C@H](c2cccc(Cl)c2)[C@H]1c1ccc(Cl)cc1")
12
